- System under test: T1, 4H850-bA
- T1 chain: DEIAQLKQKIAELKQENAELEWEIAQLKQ
- Assay overview: two-hybrid library CCNG1;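 note: natural log of median RNA to DNA barcode read ratio; higher means stronger binding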
Measurement label: interaction score

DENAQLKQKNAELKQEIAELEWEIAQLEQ [4H1985-bA]; -1.45
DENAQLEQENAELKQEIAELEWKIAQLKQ [4H1222-bA]; -0.2
DKIQQLKQENQELEQKNQELKWEIQELEQ [4H2745-bN]; -0.544
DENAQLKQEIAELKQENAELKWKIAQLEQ [4H1629-bA]; -1.14
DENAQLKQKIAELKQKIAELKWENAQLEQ [4H1899-bA]; -0.973

P = DKNAQLKQEIAELEQKIAELKWKNAQLEQ [4H3631-bA]
Q = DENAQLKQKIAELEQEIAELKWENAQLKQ [4H1804-bA]
Input: Which entry shows the lesser value of interaction score here, P or Q ? Reply with the label of the item you choose.
Output: Q
(Q: -0.531, P: -0.369)

# credit: paper PMC10397247
